Values were extracted from patent US20210275641A1.

Target: T1, human high affinity trimeric IL-2 receptor (CD25/CD122/CD132) (human, UniProt P01589 22-272; P14784 27-551; P31785 23-369)
T1 sequence 1: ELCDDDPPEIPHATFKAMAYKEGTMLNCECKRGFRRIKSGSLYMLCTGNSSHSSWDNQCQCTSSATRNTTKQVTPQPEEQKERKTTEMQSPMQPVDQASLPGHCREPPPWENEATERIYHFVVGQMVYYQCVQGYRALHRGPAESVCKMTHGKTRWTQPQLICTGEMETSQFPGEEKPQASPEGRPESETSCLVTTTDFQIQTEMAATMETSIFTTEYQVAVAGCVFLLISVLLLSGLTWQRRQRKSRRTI
T1 sequence 2: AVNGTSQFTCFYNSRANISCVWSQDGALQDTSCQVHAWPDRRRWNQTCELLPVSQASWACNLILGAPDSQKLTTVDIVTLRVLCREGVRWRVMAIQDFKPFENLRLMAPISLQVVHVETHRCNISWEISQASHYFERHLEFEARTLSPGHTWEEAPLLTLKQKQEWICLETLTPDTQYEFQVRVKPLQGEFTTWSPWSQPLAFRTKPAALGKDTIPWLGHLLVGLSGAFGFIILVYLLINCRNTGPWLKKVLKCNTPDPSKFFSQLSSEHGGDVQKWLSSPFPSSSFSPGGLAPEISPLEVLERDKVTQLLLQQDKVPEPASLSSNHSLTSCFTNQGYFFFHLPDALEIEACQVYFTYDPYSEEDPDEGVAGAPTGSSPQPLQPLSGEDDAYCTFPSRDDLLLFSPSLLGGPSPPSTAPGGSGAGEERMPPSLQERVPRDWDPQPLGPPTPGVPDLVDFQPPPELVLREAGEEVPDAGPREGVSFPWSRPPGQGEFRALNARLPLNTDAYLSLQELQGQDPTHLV
T1 sequence 3: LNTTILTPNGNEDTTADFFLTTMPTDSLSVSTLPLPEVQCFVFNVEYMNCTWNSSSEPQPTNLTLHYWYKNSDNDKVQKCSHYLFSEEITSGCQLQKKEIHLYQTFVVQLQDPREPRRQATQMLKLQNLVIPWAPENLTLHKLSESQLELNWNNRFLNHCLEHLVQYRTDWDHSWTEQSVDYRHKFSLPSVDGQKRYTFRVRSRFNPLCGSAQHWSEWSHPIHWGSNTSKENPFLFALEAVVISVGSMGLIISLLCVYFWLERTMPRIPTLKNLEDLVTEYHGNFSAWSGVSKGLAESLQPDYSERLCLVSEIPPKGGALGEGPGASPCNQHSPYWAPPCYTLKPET
Test: cell-based or functional assay
// classify(record): look up pSTAT5 ratio YT CD25/YT, dilution factor 64, lower table in ranges A = under 4, B = from 4 up to 8, C = 8 and over

DEH (ligand) cytokine: APTSSSTKKTQLQLEHLDLDLEMILNGINNYKNPKLTRMLTFKFYMPKKATELKHLQCLEEELKPLEEVLNLAQSKNFHLRPRDLISNINVIVLELKGSETTFMCEYADETATIVEFLNRWITFCHSIISTLT
C

Ask | Category lookup for the binder RDH (ligand) cytokine: APTSSSTKKTQLQLEHLRLDLDMILNGINNYKNPKLTRMLTFKFYMPKKATELKHLQCLEEELKPLEEVLNLAQSKNFHLRPRDLISNINVIVLELKGSETTFMCEYADETATIVEFLNRWITFCHSIISTLT
Reply | B

Ask | Category lookup for the binder RIH (ligand) cytokine: APTSSSTKKTQLQLEHLRLDLIMILNGINNYKNPKLTRMLTFKFYMPKKATELKHLQCLEEELKPLEEVLNLAQSKNFHLRPRDLISNINVIVLELKGSETTFMCEYADETATIVEFLNRWITFCHSIISTLT
Reply | C

Ask | Category lookup for the binder TEH (ligand) cytokine: APTSSSTKKTQLQLEHLTLDLEMILNGINNYKNPKLTRMLTFKFYMPKKATELKHLQCLEEELKPLEEVLNLAQSKNFHLRPRDLISNINVIVLELKGSETTFMCEYADETATIVEFLNRWITFCHSIISTLT
Reply | A
